Where do the numbers come from? From the NIST ThermoML archive (doi:10.1016/j.jct.2017.03.004).

test: activity coefficient (dimensionless); of the first substance listed, at infinite dilution; xn = mol fraction of the nth substance listed; details: 348.15 K; 101.33 kPa; Liquid; Chromatography; x1 = 0
Criterion: activity coefficient meeting or surpassing 20. Met: yes (1). Not met: no (0).

input: Please check the record CCC[N+](=O)[O-] [1-nitropropane] + N#C[N-]C#N.OCCC[n+]1ccccc1 and state if its activity coefficient is at or above 20.
output: no (0)

input: Does CCOCC [diethyl ether] + N#C[N-]C#N.OCCC[n+]1ccccc1 have a reported activity coefficient of at least 20?
output: yes (1)

input: Quick check: does CO [methanol] + N#C[N-]C#N.OCCC[n+]1ccccc1 have activity coefficient greater than or equal to 20?
output: no (0)

input: Threshold query (activity coefficient >= 20) on C#CCCC [1-pentyne] + N#C[N-]C#N.OCCC[n+]1ccccc1
output: no (0)

input: Determine whether measured activity coefficient meets or exceeds 20 for Cc1ccccc1 [toluene] + N#C[N-]C#N.OCCC[n+]1ccccc1
output: no (0)

input: Answer whether activity coefficient of CC(C)(C)O [2-methylpropan-2-ol] + N#C[N-]C#N.OCCC[n+]1ccccc1 is greater than or equal to 20.
output: no (0)

input: Could you tell me if the measured activity coefficient of CC(C)=O [acetone] + N#C[N-]C#N.OCCC[n+]1ccccc1 reaches 20 or more?
output: no (0)

input: Hello, I need to know if CCCO [propan-1-ol] + N#C[N-]C#N.OCCC[n+]1ccccc1 has measured activity coefficient not below 20. Thanks!
output: no (0)

input: Dear colleague, could you confirm whether C1=CCCCC1 [cyclohexene] + N#C[N-]C#N.OCCC[n+]1ccccc1 has activity coefficient at or above 20?
output: yes (1)

input: Hello, I need to know if O [water] + N#C[N-]C#N.OCCC[n+]1ccccc1 has measured activity coefficient not below 20. Thanks!
output: no (0)

input: I'd appreciate it if you could say whether C1CCCCCCC1 [cyclooctane] + N#C[N-]C#N.OCCC[n+]1ccccc1 has activity coefficient at least equal to 20.
output: yes (1)

input: Is it the case that C#CCCCCC [1-heptyne] + N#C[N-]C#N.OCCC[n+]1ccccc1 has activity coefficient reaching or exceeding 20?
output: yes (1)

input: Decide: activity coefficient of CCCC=O [butanal] + N#C[N-]C#N.OCCC[n+]1ccccc1 >= 20?
output: no (0)

input: activity coefficient >= 20 for C=CCCCCC [1-heptene] + N#C[N-]C#N.OCCC[n+]1ccccc1 ?
output: yes (1)

input: Determine whether measured activity coefficient meets or exceeds 20 for CC(C)c1ccccc1 [isopropylbenzene] + N#C[N-]C#N.OCCC[n+]1ccccc1
output: yes (1)

input: Can CC1CCCCC1 [methylcyclohexane] + N#C[N-]C#N.OCCC[n+]1ccccc1 be said to have activity coefficient at or above 20?
output: yes (1)

input: State whether the measured activity coefficient reaches 20, counting equality as reaching it, for C#CCCCCCC [1-octyne] + N#C[N-]C#N.OCCC[n+]1ccccc1
output: yes (1)

input: Is activity coefficient for C1CCCCCC1 [cycloheptane] + N#C[N-]C#N.OCCC[n+]1ccccc1 at or above 20?
output: yes (1)

input: For this molecule, is measured activity coefficient 20 or higher? C=C(C)c1ccccc1 [(1-methylethenyl)benzene] + N#C[N-]C#N.OCCC[n+]1ccccc1
output: no (0)

input: Determine whether this molecule has activity coefficient no lower than 20: CCOC(C)(C)C [2-ethoxy-2-methylpropane] + N#C[N-]C#N.OCCC[n+]1ccccc1
output: yes (1)

input: Hi team, for c1ccsc1 [thiophene] + N#C[N-]C#N.OCCC[n+]1ccccc1 , is the recorded activity coefficient at or above 20?
output: no (0)

input: Threshold query (activity coefficient >= 20) on C1COCCO1 [1,4-dioxane] + N#C[N-]C#N.OCCC[n+]1ccccc1
output: no (0)

input: Evaluate CCOC(C)=O [ethyl acetate] + N#C[N-]C#N.OCCC[n+]1ccccc1 : activity coefficient at minimum 20?
output: no (0)

input: # bool: activity coefficient of Cc1ccc(C)cc1 [1,4-dimethylbenzene] + N#C[N-]C#N.OCCC[n+]1ccccc1 >= 20
output: no (0)

input: Kindly determine if activity coefficient recorded for C1CCOC1 [tetrahydrofuran] + N#C[N-]C#N.OCCC[n+]1ccccc1 is above or exactly 20.
output: no (0)

input: Identify whether the reported activity coefficient of the following molecule is 20 or greater: CCCC(C)=O [pentan-2-one] + N#C[N-]C#N.OCCC[n+]1ccccc1
output: no (0)

input: Does activity coefficient meet or surpass 20 for Cc1cccc(C)c1 [1,3-dimethylbenzene] + N#C[N-]C#N.OCCC[n+]1ccccc1 ?
output: no (0)

input: # check: activity coefficient of CC#N [acetonitrile] + N#C[N-]C#N.OCCC[n+]1ccccc1 is greater than or equal to 20
output: no (0)

input: Entry C=CCCCCCCCC [1-decene] + N#C[N-]C#N.OCCC[n+]1ccccc1 : is its activity coefficient no less than 20?
output: yes (1)

input: Does activity coefficient meet or surpass 20 for CCc1ccccc1 [ethylbenzene] + N#C[N-]C#N.OCCC[n+]1ccccc1 ?
output: no (0)

input: I'd appreciate it if you could say whether Cc1ccccc1C [1,2-dimethylbenzene] + N#C[N-]C#N.OCCC[n+]1ccccc1 has activity coefficient at least equal to 20.
output: no (0)

input: # check: activity coefficient of C=CCCCCCC [oct-1-ene] + N#C[N-]C#N.OCCC[n+]1ccccc1 is greater than or equal to 20
output: yes (1)

input: Determine whether measured activity coefficient meets or exceeds 20 for CCC(=O)CC [pentan-3-one] + N#C[N-]C#N.OCCC[n+]1ccccc1
output: no (0)

input: Entry CCCCCCCCCC [decane] + N#C[N-]C#N.OCCC[n+]1ccccc1 : is its activity coefficient no less than 20?
output: yes (1)

input: Does CCC(=O)OC [methyl propanoate] + N#C[N-]C#N.OCCC[n+]1ccccc1 have a reported activity coefficient of at least 20?
output: no (0)

input: I'd appreciate it if you could say whether C1CCCCC1 [cyclohexane] + N#C[N-]C#N.OCCC[n+]1ccccc1 has activity coefficient at least equal to 20.
output: yes (1)

input: Please indicate if the recorded activity coefficient for CCCC(=O)OC [methyl butanoate] + N#C[N-]C#N.OCCC[n+]1ccccc1 meets or exceeds 20.
output: no (0)

input: hey, is activity coefficient for this one >= 20? CCCc1ccccc1 [propylbenzene] + N#C[N-]C#N.OCCC[n+]1ccccc1
output: yes (1)

input: Hello, I need to know if CCCCCCCCC [nonane] + N#C[N-]C#N.OCCC[n+]1ccccc1 has measured activity coefficient not below 20. Thanks!
output: yes (1)
